- experimentalParameters: two classes made from the FDA DILI-concern labeling
measuredAttribute: Severity class

Solved cases below.
| compound | result |
| --- | --- |
| C[N+](C)(C)CCOC(=O)CCC(=O)OCC[N+](C)(C)C [Succinylcholine] | Non-sev. |
| CCC1(c2ccccc2)C(=O)NC(=O)NC1=O [Phenobarbital] | Non-sev. |
| C[N+](C)(C)CC(=O)O [Betaine] | Non-sev. |
| CCc1ccc(CCOc2ccc(CC3SC(=O)NC3=O)cc2)nc1 (stereo not drawn) [Pioghtazone] | Non-sev. |
| CC(C)NNC(=O)c1ccncc1 [Iboniazid] | Sev. |

Dear colleague, could you send me Severity class for each of the items below? Thanks.
1. Br.COc1ccc2c(c1)[C@]13CCCC[C@@H]1[C@H](C2)N(C)CC3 [Dextromethorphan hbr]
2. CN(C)C/C=C(/c1ccc(Br)cc1)c1cccnc1 [Zimehdine]
3. CC[N+](C)(C)c1cccc(O)c1 [Edrophonium]
4. CSc1ccc2c(c1)N(CCC1CCCCN1C)c1ccccc1S2 (stereo not drawn) [Thiondazine]

1: Non-sev.; 2: Sev.; 3: Non-sev.; 4: Non-sev.
